experiment: Inhibition of [125I] Ang2 binding to AT1 receptor in Sprague-Dawley rat VSMC after 150 mins by gamma-counter method
Define the label as class 1 when IC50 is strictly less than 5 nM and as class 0 in all remaining cases.

structure as smiles | class
CCCCc1nc2c(C)cc(C(=O)NCCc3ccccc3)cc2n1Cc1ccc2c(ccn2-c2ccccc2C(=O)O)c1 | class 1

Please state whether IC50 is below 5 nM for `CCCCc1nc(Cl)c(CO)n1Cc1ccc(-c2ccccc2-c2nnn[nH]2)cc1` class 0

Consider the compound `CCCCc1nc2c(C)cc(C(=O)NCCc3ccccc3)cc2n1Cc1cccc2c1ccn2-c1ccccc1C(=O)O` . Is its IC50 strictly less than 5 nM? class 0

Problem: For the compound `CCCc1nc2c(C)cc(C(=O)NCCc3ccccc3)cc2n1Cc1cccc2c1ccn2-c1ccccc1C(=O)O` , is IC50 under 5 nM? class 1

Quick check: IC50 of `CCCc1nc2c(C)cc(C(=O)NCCc3ccccc3)cc2n1Cc1ccc2c(ccn2-c2ccccc2C(=O)O)c1` under 5 nM? class 1

Regarding `CCc1nc2c(C)cc(C(=O)NCCc3ccccc3)cc2n1Cc1cccc2c1ccn2-c1ccccc1C(=O)O` , kindly confirm whether its IC50 is beneath 5 nM. class 1

In plain terms, does `CCc1nc2c(C)cc(C(=O)NCCc3ccccc3)cc2n1Cc1ccc2c(ccn2-c2ccccc2C(=O)O)c1` come in under 5 nM for IC50? class 0

* * *

Examples of compounds with documented Ki follow.
test: Inhibition of [125I] Ang2 binding to AT1 receptor in Sprague-Dawley rat VSMC after 150 mins by gamma-counter method
Kindly provide the numeric value in nM only, without the unit symbol.

compound | Ki, nM
CCCCc1nc2c(C)cc(C(=O)NCCc3ccccc3)cc2n1Cc1cccc2c1ccn2-c1ccccc1C(=O)O | 6.2
CCCCc1nc(Cl)c(CO)n1Cc1ccc(-c2ccccc2-c2nnn[nH]2)cc1 [LOSARTAN] | 10.5
CCCc1nc2c(C)cc(C(=O)NCCc3ccccc3)cc2n1Cc1cccc2c1ccn2-c1ccccc1C(=O)O | 1.7
CCCCc1nc2c(C)cc(C(=O)NCCc3ccccc3)cc2n1Cc1ccc2c(ccn2-c2ccccc2C(=O)O)c1 | 2.7
CCc1nc2c(C)cc(C(=O)NCCc3ccccc3)cc2n1Cc1cccc2c1ccn2-c1ccccc1C(=O)O | 3.5
CCc1nc2c(C)cc(C(=O)NCCc3ccccc3)cc2n1Cc1ccc2c(ccn2-c2ccccc2C(=O)O)c1 | 8.8

For the next question, use this compound.
Need Ki, item `CCCc1nc2c(C)cc(C(=O)NCCc3ccccc3)cc2n1Cc1ccc2c(ccn2-c2ccccc2C(=O)O)c1` 1.9
